- testName: qHTS Assay for Lipid Storage Modulators in Drosophila S3 Cells; also: potency is read from the fitted curve at half-maximal effect
- reportedConditions: BODIPY lipid droplet fluorescence, 18-24 h, cells fed with added oleic acid; series mostly up to 46.1 µM
Among all 320,000 compounds or so, about 2,100 (0.66%) were called active. Another 53% or so got no clear call; they are omitted. What follows is part of a selection rich in actives, with near analogues and random picks from the rest.
observable: Potency

Example results:
* O=C(CCN1C(=O)/C(=C\c2ccccc2)SC1=S)N1CCCCC1 | inactive
* O=C1/C(=C/c2ccccc2)SC(=S)N1CCCC(=O)N1CCCCC1CCO (stereo unspecified) | 18.4 µM (active)
* COc1cccc(/C=C2\SC(=S)N(CCCC(=O)N3CCCCC3CCO)C2=O)c1 (stereo unspecified) | inactive
* COc1cc(NC(=O)N[C@H](C(=O)O)C(C)C)cc(OC)c1 | 5.8 µM (active)
* CCC(C)Nc1cc(C)c(C#N)c2nc3ccccc3n12 (stereo unspecified) | inactive
* COc1cccc(/C=C2\SC(=S)N(CCCC(=O)N3CCCC3)C2=O)c1 | inactive
* COc1ccc(CCC(=O)Nc2cccc(S(=O)(=O)N(C)C)c2)cc1OC | inactive
* COC(=O)[C@@H](NC(=O)Nc1ccc(OC)cc1)C(C)C | inactive

Need Potency of O=C(O)CCCCCN1C(=O)/C(=C/c2ccncc2)SC1=S , thanks. inactive

Need Potency of Cc1cc(NC(C)C)n2c(nc3ccccc32)c1C#N , thanks. 16.4 µM (active)

Need Potency of Nc1ncc(Br)cc1S(=O)(=O)Nc1cc(C(F)(F)F)cc(C(F)(F)F)c1 , thanks. 0.58 µM (active)

---

- testName: qHTS Assay for Lipid Storage Modulators in Drosophila S3 Cells
- reportedConditions: BODIPY lipid droplet fluorescence, 18-24 h, cells fed with added oleic acid; series mostly up to 46.1 µM
- From the text: NIH Molecular Libraries Probe Production Centers Network [MLPCN] NIH Chemical Genomics Center [NCGC] […] Triacsin C (Sigma-Aldrich T-4540), an inhibitor of long-chain fatty acyl CoA synthetase that blocks synthesis of triglycerides, was used as a positive control for lipid under-storage. […] Fluorescence was detected by excitation of the fluorophores with a 488-nm laser on an Acumen Explorer (TTP Lab Tech). […] Cells were detected using channel 3 (575-640 nm) with 5-um width and 100-um depth filters. […]
The campaign covered roughly 320,000 compounds. About 2,100 (0.66%) were called active. Another 53% or so got no clear call; they are omitted. The call rests on the fitted dose curve; in most records, active means well fitted inhibition curve with a large enough effect in the signal ratio, with a control signal flat (not every such curve was filed as active); inconclusive means small, poorly fitted or top-dose-only effect, or effect the other way, or a change in a side signal; inactive means flat fitted curve, though single readings scatter; the % refers to the signal ratio. What follows is part of a selection rich in actives, with near analogues and random picks from the rest.
Respond using exactly one of the listed classes: active, inactive

Lab log entry: C=CCNC(=S)NNC(=O)C(CCCC)CC(C)O (stereo unspecified) — outcome as called in the assay? active

Lab log entry: COc1cccc(N2C(=NC(=O)C3CCCCC3)SC3CS(=O)(=O)CC32)c1 (stereo unspecified) — outcome as called in the assay? inactive

Lab log entry: N#C/C(=C\c1c[nH]c2ccccc12)c1nnc2n1CCCCC2 — outcome as called in the assay? inactive

Lab log entry: COc1cccc(N2C(=NC(=O)CCC3CCCC3)SC3CS(=O)(=O)CC32)c1 (stereo unspecified) — outcome as called in the assay? active

Lab log entry: N#C/C(=C/c1ccccc1[N+](=O)[O-])c1nnc2n1CCCCC2 — outcome as called in the assay? inactive

Lab log entry: O=[N+]([O-])c1cccc(-c2nnc3n2CCCCC3)c1 — outcome as called in the assay? inactive

Lab log entry: N#C/C(=C\c1cccc([N+](=O)[O-])c1)c1nnc2n1CCCCC2 — outcome as called in the assay? active

Lab log entry: C=CCNC(=S)NNC(=O)C(CC(C)C)CC(C)O (stereo unspecified) — outcome as called in the assay? inactive

Lab log entry: N#C/C(=C/c1cccc([N+](=O)[O-])c1)c1nnc2n1CCCCC2 — outcome as called in the assay? active

Lab log entry: Cc1cc([N+](=O)[O-])ccc1NCc1ccccc1[N+](=O)[O-] — outcome as called in the assay? inactive

Lab log entry: O=C(CSc1nc(-c2ccc(F)cc2)nc2c1Cc1ccccc1O2)Nc1ccc(C(=O)O)cc1 — outcome as called in the assay? inactive
